Assay: Inhibition of MurD (unknown origin) at 100 uM relative to control
Value Kind: inhibition

Recorded inhibition, per entry:
{"Smiles Code": "Cc1cc(-c2ccco2)cc(C)c1/C=C/c1cc(-c2nnn[nH]2)ccn1", "Obs Value": "73%"}
{"Smiles Code": "Cc1cc(N2CCCC2)cc(C)c1/C=C/c1cncc(-c2nnn[nH]2)c1", "Obs Value": "1%"}
{"Smiles Code": "Cc1cc(-c2ccco2)cc(C)c1/C=C/c1cncc(C#N)c1", "Obs Value": "27%"}

// switching to the query compound
Name the reported inhibition value associated with the compound `Cc1cc(-c2cccc(CO)c2)cc(C)c1/C=C/c1cncc(-c2nnn[nH]2)c1` 14%
